# System: SUDHL5 cells
# assay name: Induction of caspase-3/7 activity (Caspase-Glo 3/7), SUDHL5
# Type: cell-based
# assay context: EC50, median; SUDHL5, 3 h treatment
reported metric: EC50 (nM)
# unit: nM | format: bare number

Record excerpt, results attached:
compound | assay system | measure unit | meas value
Cc1c2c(nn1C)COCCCCn1c(C(=O)O)c(CCCOc3cccc4cc(F)ccc34)c3ccc(Cl)c-2c31 (single isomer, unassigned; enantiomer 2) [Example 17] | SUDHL5 cells | nM | 290
Cc1c2c(nn1C)COCCCCn1c(C(=O)O)c(CCCOc3cccc4ccccc34)c3ccc(Cl)c-2c31 (single isomer, unassigned; enantiomer 1) | SUDHL5 cells | nM | 250
CCc1c2c(nn1C)CCCN(CC(F)F)CCn1c(C(=O)O)c(CCCOc3cccc4cc(F)ccc34)c3ccc(Cl)c-2c31 (racemic) [Example 118] | SUDHL5 cells | nM | 330
Cc1c2c(nn1C)COCCCCn1c(C(=O)O)c(CCCOc3cccc4cc(F)ccc34)c3ccc(Cl)c-2c31 (single isomer, unassigned; enantiomer 1) [Example 15] | SUDHL5 cells | nM | 120

Turning now to a further compound:
-- ask Any idea what EC50 was measured for Cc1c2c(nn1C)COCC(F)(F)CCn1c(C(=O)O)c(CCCOc3cccc4ccccc34)c3ccc(Cl)c-2c31 (single isomer, unassigned; enantiomer 2) [Example 57] ?
-- reply 3200

---

# System: AMO-1 cells
# assay name: Antiproliferation assay (CellTiter-Glo, 72 h), AMO-1
# Type: cell-based
# assay context: IC50, median; AMO-1, 72 h; listed as 098; read-out: Antiproli AMO-1 [M] median
reported metric: IC50 (M)
Numbers only; they are read as M.

-- ask Fill in the blank: the reported IC50 of CCc1c2c(nn1C)COCCC(F)(F)Cn1c(C(=O)O)c(CCCOc3cccc4cc(F)ccc34)c3ccc(Cl)c-2c31 (single isomer, unassigned) [Example 98] is ____.
-- reply 6.9e-06

---

IC50 listing for selected compounds.
# assay system: MCL-1 (Homo sapiens (Human), UniProt Q07820, K194A/K197A/R201A)
# Sequence (Q07820 whole entry K194A/K197A/R201A, looked up): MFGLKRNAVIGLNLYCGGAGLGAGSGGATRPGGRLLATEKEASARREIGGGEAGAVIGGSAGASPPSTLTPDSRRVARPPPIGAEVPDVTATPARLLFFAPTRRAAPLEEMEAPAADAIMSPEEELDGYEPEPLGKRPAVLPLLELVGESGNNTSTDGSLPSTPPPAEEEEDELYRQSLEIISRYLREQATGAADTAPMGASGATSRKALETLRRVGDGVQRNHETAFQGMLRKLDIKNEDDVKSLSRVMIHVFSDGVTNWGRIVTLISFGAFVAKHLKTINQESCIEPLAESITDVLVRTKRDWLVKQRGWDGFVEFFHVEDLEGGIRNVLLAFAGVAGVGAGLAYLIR
# assay name: Protein-protein interaction assay MCL-1/Noxa BH3 peptide (MCL-1 assay), TR-FRET
# Format: binding
# assay context: IC50, median; MCL-1/Noxa BH3 TR-FRET
Answer format: number, then unit.

Reference set (2 entries):
compound | IC50
CCc1c2c(nn1C)COC/C=C\Cn1c(C(=O)O)c(CCCOc3cccc4ccccc34)c3ccc(Cl)c-2c31 (racemic) | 1.3 nM
Cc1c2c(nn1C)CN(C)CCCCn1c(C(=O)O)c(CCCOc3cccc4cc(F)ccc34)c3ccc(Cl)c-2c31 (single isomer, unassigned; enantiomer 2) | 26 nM

-- ask So what does the record say about IC50 for CCc1c2c(nn1C)CN(CCN1CCOCC1)CCCCn1c(C(=O)O)c(CCCOc3cccc4cc(F)ccc34)c3ccc(Cl)c-2c31 (single isomer, unassigned; enantiomer 2) ?
-- reply 62 nM

---

# Test system: SUDHL10 cells
# assay name: Induction of cytotoxicity (CellTiter-Glo, 5 h), SUDHL10
# assay context: read-out: Cytotox SUDHL10 [M] (median); IC50, median; SUDHL10, 5 h; listed as 095
reported metric: IC50 (M)
Form entry: value (M) — number only.

-- ask Reported IC50 for SUDHL10 cells, given Cc1c2c(nn1C)COCCC(F)(F)Cn1c(C(=O)O)c(CCCOc3cccc4ccccc34)c3ccc(Cl)c-2c31 [Example 95] ?
-- reply 4.5e-07
